Readings of Log KD α1D for the listed compounds
# Study target: full-length human α1D-adrenoceptor (Homo sapiens)
# Sequence (P25100 whole entry): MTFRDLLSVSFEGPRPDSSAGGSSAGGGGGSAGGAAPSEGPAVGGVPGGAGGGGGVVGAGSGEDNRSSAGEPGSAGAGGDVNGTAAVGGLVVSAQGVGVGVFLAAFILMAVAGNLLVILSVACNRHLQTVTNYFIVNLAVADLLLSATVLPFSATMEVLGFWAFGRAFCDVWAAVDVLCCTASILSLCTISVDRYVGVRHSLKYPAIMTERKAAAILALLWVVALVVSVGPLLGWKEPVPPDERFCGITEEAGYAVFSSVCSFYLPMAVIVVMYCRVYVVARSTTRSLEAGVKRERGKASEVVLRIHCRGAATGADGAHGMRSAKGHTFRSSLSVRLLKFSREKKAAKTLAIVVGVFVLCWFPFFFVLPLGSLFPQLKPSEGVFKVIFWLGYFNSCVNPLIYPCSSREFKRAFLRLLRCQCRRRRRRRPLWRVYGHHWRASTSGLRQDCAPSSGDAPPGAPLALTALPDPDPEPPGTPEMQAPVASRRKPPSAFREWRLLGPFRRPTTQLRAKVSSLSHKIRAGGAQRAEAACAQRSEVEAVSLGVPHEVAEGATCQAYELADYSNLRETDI
# Assay text: [3H]prazosin whole-cell competition binding, CHO-α1D cells
# Run parameters: single-component inhibition curve; given as log KD (negative); mean ± SE mean

[
  {
    "Compound": "CNCCCN1c2ccccc2CCc2ccc(Cl)cc21 [Norclomipramine]",
    "Log KD α1D": "−5.84 ± 0.06"
  },
  {
    "Compound": "CN1[C@H]2C[C@H](OC(=O)[C@H](CO)c3ccccc3)C[C@@H]1[C@@H](O)C2 [Anisodamine]",
    "Log KD α1D": "−4.21 ± 0.05"
  },
  {
    "Compound": "COc1ccc(C(CN(C)C)C2(O)CCCCC2)cc1 (stereo not drawn) [Venlafaxime]",
    "Log KD α1D": "−4.38 ± 0.16"
  },
  {
    "Compound": "CC(C)OC(=O)c1cc2c(OCC(O)CNC(C)(C)C)cccc2[nH]1 (stereo not drawn) [SDZ21009]",
    "Log KD α1D": "−5.09 ± 0.18"
  },
  {
    "Compound": "COC1(C2=NCCN2)COc2ccccc2O1 (stereo not drawn) [RX821002]",
    "Log KD α1D": "−5.31 ± 0.13"
  },
  {
    "Compound": "CN1CCN(c2ccc(Nc3c4ccccc4nc4ccccc34)cc2)CC1 [JP1302]",
    "Log KD α1D": "−5.58 ± 0.09"
  }
]

Let's switch to this compound now.
Entry COc1cccc2c1CCC[C@H]2CN(C)CCc1ccc2ccoc2c1.CS(=O)(=O)O [A80426] has what Log KD α1D?
−6.07 ± 0.07
